Source: PubChem BioAssay (NCI)

tested on: UO-31 renal; assay: NCI-60 one-dose screen, 48 h; conditions: 10 µM unless noted
Compounds without any hit were thinned out: in the full panel of roughly 83,000, 20% have a hit. Calls of active or inactive are those of the source. Rule for the calls: active = growth percent below 10; inactive = the rest.
Your answer must be one of the following: 1 for active, 0 for inactive

Some solved entries appear below for comparison.
Compound	Group label
C=CCn1c(SCC(=O)c2ccccc2)nnc1-c1c[nH]c2ccccc12	0
CC(=O)Oc1ccccc1C(=O)Nc1ccc(C(=O)/C=C/c2cccs2)cc1	0
N[C@@H](Cc1cn(-c2c3ccccc3nc3ccccc23)nn1)C(=O)O	0

Data request: Assay outcome for CCN1C(=S)N(CC)C2C1N=C(SC)N2/N=C/C=C/c1ccccc1[N+](=O)[O-] (stereo not drawn) : what was it?
Data returned: 0

Data request: Assay outcome for Cc1ccc(CNS(=O)(=O)/N=C2\NC(=O)NC2=C(Cl)Cl)cc1 : what was it?
Data returned: 0

Data request: Assay outcome for Cc1c(Nc2nnc(SCC(=O)Nc3sc4c(c3C#N)CCCC4)s2)c(=O)n(-c2ccccc2)n1C : what was it?
Data returned: 0

Data request: Assay outcome for Clc1ccc2c(NCCCN3CCOCC3)c3oc4ccccc4c3nc2c1 : what was it?
Data returned: 0

Data request: Assay outcome for O=C(N/N=C/c1ccc(Br)s1)c1[nH]c2ccc(Br)cc2c1-c1ccccc1 : what was it?
Data returned: 0

Data request: Assay outcome for O=C(CCCN1C(=O)/C(=C/c2ccccc2F)SC1=S)N1CCOCC1 : what was it?
Data returned: 0

Data request: Assay outcome for O=C(CSc1nnc(-c2ccc3nc(-c4ccc(Cl)cc4)[nH]c3c2)o1)Nc1ccc(C(=O)/C=C/c2ccc(Cl)cc2)cc1 : what was it?
Data returned: 0

Data request: Assay outcome for CS(=O)(=O)c1ccc(-c2nc3ccccn3c2/C=N/Nc2nc(-c3ccc(Cl)cc3)cs2)cc1 : what was it?
Data returned: 0

Data request: Assay outcome for CCOC(=O)c1c(Nc2ccccc2)nn2c(N)c(C#N)c(-c3ccc(F)cc3)nc12 : what was it?
Data returned: 0

Data request: Assay outcome for CC(O)C(NC(=O)C1CCCN1C(=O)CNC(=O)C1CC(=O)NCC(=O)NC(Cc2c[nH]c3ccccc23)C(=O)NC(Cc2ccc(O)cc2)C(=O)NCC(=O)NC(CO)C(=O)NC(CCC(N)=O)C(=O)NC(Cc2c[nH]c3ccccc23)C(=O)N1)C(=O)NCC(=O)NC(CCC(N)=O)C(=O)NC(CCCNC(=N)N)C(=O)NC(CC(=O)O)C(=O)O (stereo not drawn) : what was it?
Data returned: 0
